EC50 listing for selected compounds.
tested_system: 5-ht1E receptor (Homo sapiens, UniProt P28566)
Construct: gene HTR1E; full-length human recombinant receptor in CHO-K1 cells (Ogeda); crude membranes
Sequence (P28566 whole entry): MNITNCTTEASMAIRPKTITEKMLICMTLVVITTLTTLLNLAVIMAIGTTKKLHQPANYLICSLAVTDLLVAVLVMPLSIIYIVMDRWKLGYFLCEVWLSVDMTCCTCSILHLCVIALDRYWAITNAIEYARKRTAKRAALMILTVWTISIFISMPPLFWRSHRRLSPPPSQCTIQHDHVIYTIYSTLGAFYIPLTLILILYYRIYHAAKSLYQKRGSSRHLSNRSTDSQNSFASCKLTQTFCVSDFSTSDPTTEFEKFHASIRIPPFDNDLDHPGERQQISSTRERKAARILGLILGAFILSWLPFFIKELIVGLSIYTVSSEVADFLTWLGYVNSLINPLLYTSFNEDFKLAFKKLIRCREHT
protocol_details: biochemical
Assay type: CHO-K1 membranes
Set-up: GTPγS agonist functional assay
reported_conditions: GTPγS
Counter-ions that a name gives are not always drawn.
result_type: EC50

compound: CNS(=O)(=O)Cc1ccc2[nH]cc(CCCN3CCN(c4ncncc4OC)CC3)c2c1 [Avitriptan fumarate]
endpoint_result: > 10 µM
--
compound: CNC1CCc2[nH]c3ccc(C(N)=O)cc3c2C1 (racemic) [Frovatriptan racemate]
endpoint_result: > 10 µM
--
compound: N#Cc1ccc(N2CCN(C(=O)COc3ccc4[nH]cc(CCN)c4c3)CC2)cc1 [Donitriptan hydrochloride]
endpoint_result: > 10 µM

---

tested_system: 5-HT1D receptor (Homo sapiens, UniProt P28221)
Construct: gene HTR1D; full-length human recombinant receptor in CHO-K1 cells (Ogeda); crude membranes
Sequence (P28221 whole entry): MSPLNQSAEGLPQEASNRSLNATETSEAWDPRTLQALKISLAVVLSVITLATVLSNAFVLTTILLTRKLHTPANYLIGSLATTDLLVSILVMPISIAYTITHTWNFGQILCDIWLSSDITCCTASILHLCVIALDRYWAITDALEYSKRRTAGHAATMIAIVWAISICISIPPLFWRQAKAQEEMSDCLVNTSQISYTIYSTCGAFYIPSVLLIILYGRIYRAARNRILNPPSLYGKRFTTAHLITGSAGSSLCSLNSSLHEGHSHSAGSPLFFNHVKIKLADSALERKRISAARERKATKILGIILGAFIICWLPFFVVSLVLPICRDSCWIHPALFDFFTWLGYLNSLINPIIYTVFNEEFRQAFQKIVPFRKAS
protocol_details: biochemical
Type: CHO-K1 membranes
Set-up: radioligand competition binding on cell membranes, filtration and TopCount scintillation counting
reported_conditions: radioligand displacement; read-out: 5‐HT1D / pIC50 (converted)
Procedure: Competition binding was performed in duplicate in the wells of a 96‐well plate containing binding buffer (optimized for each receptor), cell membrane extracts (approximately 20,000 cells distributed in the 96‐well plate), radiotracer, and test agonist. Non‐specific binding was determined by co‐incubation with 200‐fold excess of competitor. […] The plates were incubated 15 min at room temperature on an orbital shaker and then counted with a TopCount™ (Perkin Elmer) for 1 min per well. […]
Counter-ions that a name gives are not always drawn.
IC50 listing for selected compounds.

compound: CN1CCC[C@@H]1Cc1c[nH]c2ccc(CCS(=O)(=O)c3ccccc3)cc12 [Eletriptan hydrobromide]
IC50 / nM: 0.49
--
compound: CNS(=O)(=O)Cc1ccc2[nH]cc(CCCN3CCN(c4ncncc4OC)CC3)c2c1 [Avitriptan fumarate]
IC50 / nM: 3.8
--
compound: CNS(=O)(=O)CCc1ccc2[nH]cc(C3CCN(C)CC3)c2c1 [Naratriptan hydrochloride]
IC50 / nM: 2.4
